System: NCI-H196 SCLC complex tumor spheroid viability
methodDescription: Anticancer human tumor NCI-H196 cell line growth inhibition;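 also: spheroids exposed to compounds for 7 days before readout; 100% = DMSO vehicle control wells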
setupConditions: second compound 0.3 µM; first compound 0.1 µM; hits give low values
Below, each entry is listed with its recorded viability, T/C.
Return type: number; implicit unit %.

Use the examples below as a reference point.
| compound | readoutUnits | obsValue |
| --- | --- | --- |
| COc1cc(C)[nH]c(=O)c1CN1CCc2c(Cl)cc(C(OC)C3COC3)c(Cl)c2C1=O (stereo unspecified) + CC[C@@]1(O)C(=O)OCc2c1cc1n(c2=O)Cc2cc3c(CN(C)C)c(O)ccc3nc2-1 | % | 101 |
| Cc1cc(C)c(CNC(=O)c2cc(-c3ccc(CN4CCOCC4)cc3)cc3c2cnn3C2CCCC2)c(=O)[nH]1 + CC[C@@]1(O)C(=O)OCc2c1cc1n(c2=O)Cc2cc3c(CN(C)C)c(O)ccc3nc2-1 | % | 87.7 |
| COc1ccc([C@@H](O)c2cc(-c3ncnc4cc(N5CCOCC5)ccc34)c(F)cc2Cl)nn1 + CC[C@@]1(O)C(=O)OCc2c1cc1n(c2=O)Cc2cc3c(CN(C)C)c(O)ccc3nc2-1 | % | 104 |
| CC1COCCN1c1cc(-c2ccnn2C)c2ccnc(-c3ccn[nH]3)c2n1 (stereo unspecified) + CC[C@@]1(O)C(=O)OCc2c1cc1n(c2=O)Cc2cc3c(CN(C)C)c(O)ccc3nc2-1 | % | 51.7 |
| [2H]c1nc(C)nc([2H])c1-c1cc(NC[C@@H](C)c2cccc3c(C(=O)NC)ccnc23)ncn1 + CC[C@@]1(O)C(=O)OCc2c1cc1n(c2=O)Cc2cc3c(CN(C)C)c(O)ccc3nc2-1 | % | 103 |

Form: compound = CC(C)n1c(=O)n(C)c2cnc3cc(F)c(-c4ccc(OCCCN5CCCCC5)nc4)cc3c21 + CC[C@@]1(O)C(=O)OCc2c1cc1n(c2=O)Cc2cc3c(CN(C)C)c(O)ccc3nc2-1 ; viability, T/C = 107
